- Test system: MDA-MB-435
- PROTOCOL_TEXT: NCI tumour cell line growth inhibition, 48 h
Active and inactive are the calls of the source. Rule as the data show it: active = GI50 up to about 1.1 µM and inactive = higher.
MEASURED_ENDPOINT: GI50

Could I get GI50 for every one of these entries?
1. Cc1cc(C)nc(NS(=O)(=O)c2ccc(NNc3c4ccccc4nc4c(C(=O)Nc5ccc(S(=O)(=O)N=C(N)N)cc5)cccc34)cc2)n1
2. CCOC(=O)C(NC(=O)Nc1ccccc1)(Nc1cccc(Cl)c1)C(F)(F)F (centres undefined)

["39.1 µM (inactive)", "> 100 µM (inactive)"]

Could I get GI50 for every one of these entries?
1. O=[N+]([O-])c1ccc2nc3c(nc2c1)-c1c2ccccc2cc2cccc-3c12
2. Cc1nnc(N2C(=O)C(=Cc3ccc(Cl)cc3)N=C2c2ccc(Cl)cc2)nc1/C=C\c1ccc(N(C)C)cc1
3. OCC(CN1CCCCC1)(CN1CCCCC1)CN1CCCCC1
4. Nc1nc(-c2ccccc2)c(-c2ccccc2)c(-c2nc(N)nc(-c3ccccc3)c2-c2ccccc2)n1

27.8 µM (inactive)
> 100 µM (inactive)
> 100 µM (inactive)
> 100 µM (inactive)

Could I get GI50 for every one of these entries?
1. OC(/C(=N/c1ccccc1)c1ccccc1)c1ccccc1 (centres undefined)
2. C/C(=C\[C@H]1C[C@@H]([C@@H]2CC[C@]34C[C@]23C=C[C@@H]2[C@@]3(C)CC=C5C[C@@H](c6ccccc6)OC[C@]5(C)[C@@H]3C[C@@H](O)[C@]24C)C(=O)O1)CO
3. COC(=O)Cc1c(C2=Nc3ccccc3C2(O)CC(=O)OC)[nH]c2ccccc12 (centres undefined)

1. 2.75 µM (inactive)
2. 2.48 µM (inactive)
3. > 100 µM (inactive)

---

Provide the reported GI50 of each item.
- System: EKVX
- PROTOCOL_TEXT: NCI tumour cell line growth inhibition, 48 h
Calls of active or inactive are those of the source. Rule as the data show it: active = GI50 up to about 1.1 µM and inactive = higher.

compound=Cc1cccc(Nc2cn(CCOc3ccccc3)c(=O)[nH]c2=O)c1 measured_endpoint=GI50 experimental_result="11.3 µM (inactive)"
compound="COc1ccc(C2c3cc4c(cc3OC(O)(CO)C2C(=O)O)OCO4)c(OC)c1OC.COc1ccc(C2c3cc4c(cc3OC3(O)COC(=O)C23)OCO4)c(OC)c1OC (stereo not given)" measured_endpoint=GI50 experimental_result="> 100 µM (inactive)"
compound="CSc1nc2c(c(=O)n1C)N=C(c1ccc([N+](=O)[O-])cc1)CC(c1ccccc1)N2 (stereo not given)" measured_endpoint=GI50 experimental_result="> 100 µM (inactive)"

Could I get GI50 for every one of these entries?
1. CCN1C(=S)n2cccc2C1CC(=O)c1ccc(Cl)cc1 (stereo not given)
2. Brc1ccc(/C=N/C23CC4CC(CC(C4)C2)C3)cc1

1: 32.3 µM (inactive); 2: > 100 µM (inactive)

Could I get GI50 for every one of these entries?
1. COc1ccc(NC(C)=O)cc1N1C(=O)/C(=C\c2cccc(Oc3ccccc3)c2)S(=O)(=O)C1c1ccccc1 (stereo not given)
2. Cc1cc2c(c(C(=O)O)c1C)-c1cccc(Cl)c1C2=O
3. O=C(N/N=C(/c1nc2ccc(Cl)cc2[nH]c1=O)C(O)c1ccc(Cl)cc1Cl)c1ccncc1 (stereo not given)
4. COc1cc(C2C(C(=O)Nc3ccc([N+](=O)[O-])cc3)=C(C)NC(C)=C2C(=O)Nc2ccc([N+](=O)[O-])cc2)ccc1O
5. O=C(CCC(=O)c1ccc(Cl)cc1)NO

["41.6 µM (inactive)", "> 100 µM (inactive)", "> 100 µM (inactive)", "39.1 µM (inactive)", "> 100 µM (inactive)"]

Could I get GI50 for every one of these entries?
1. Cc1cc2nc3ccccc3n2c2ccccc12
2. CC(=O)C(C)CCOC1(C)OCCC1C (stereo not given)

1.81 µM (inactive)
> 100 µM (inactive)
